assay target: T1, BCMA (Homo sapiens (Human), UniProt Q02223 1-54, limits assumed)
T1 sequence: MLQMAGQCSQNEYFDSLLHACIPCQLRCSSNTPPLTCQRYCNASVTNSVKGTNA
run description: ELISA, format not described
Design: unit not given here
Entries and their ELISA_avg values follow.
measure: ELISA_avg

binder | measure | endpoint value
D-domain SEQ ID NO: 279 (designed binder) MGSWLSFKHHLALIKWYLEALGGSEAELASFEAWIALFEHQLQQYKGKGNPEVEALRKEAAAIRDELQAYRHN | ELISA_avg | 6.3
D-domain SEQ ID NO: 62 (designed binder) MGSWTEFAWRLIAIDQRLMALGGSEAELAAFEKEIAAFESELQAYKGKGNPEVEILRELAAEIRFHLQAYRHN | ELISA_avg | 8.55
D-domain SEQ ID NO: 168 (designed binder) MGSWYEFDGRLQAIIARLRALGGSEAELAAFEKEIAAFESELQAYKGKGNPEVEHLRFRAAYIRWILQAYRHN | ELISA_avg | 3.29
D-domain SEQ ID NO: 338 (designed binder) MGSWTTLKWRLAHIKQHLEALGGSEAELALFEYDIAHFEELLQYYKGKGNPEVEALRKEAAAIRDELQAYRHN | ELISA_avg | 17.8
D-domain SEQ ID NO: 224 (designed binder) MGSWWEFTFRLAAIEFRLEALGGSEAELAAFEKEIAAFESELQAYKGKGNPEVEDLRAIAAEIRKSLQAYRHN | ELISA_avg | 5.75
D-domain SEQ ID NO: 114 (designed binder) MGSWTEFHERLQAIWFRLHALGGSEAELAAFEKEIAAFESELQAYKGKGNPEVEELRFRAAIIRLYLQAYRHN | ELISA_avg | 12.1
D-domain SEQ ID NO: 120 (designed binder) MGSWHEFYYRLEAIEQRLHALGGSEAELAAFEKEIAAFESELQAYKGKGNPEVETLRFDAALIRIYLQAYRHN | ELISA_avg | 3.73
D-domain SEQ ID NO: 234 (designed binder) MGSWYEFKHRLAIIKWYLEALGGSEAELAHFEQYIADFEGTLQKYKGKGNPEVEALRKEAAAIRDELQAYRHN | ELISA_avg | 14.8
D-domain SEQ ID NO: 219 (designed binder) MGSWGEFDVRLFAIRERLSALGGSEAELAAFEKEIAAFESELQAYKGKGNPEVEYLRGYAAQIRSFLQAYRHN | ELISA_avg | 7.35
D-domain SEQ ID NO: 289 (designed binder) MGSWTNFKYKLAVIKFMLEALGGSEAELAFFEDWIAGFEIDLQNYKGKGNPEVEALRKEAAAIRDELQAYRHN | ELISA_avg | 11.4
